target: Neuronal acetylcholine receptor subunit alpha-7 (Homo sapiens, UniProt P36544); test: Silent agonist activity at human alpha7 nAChR expressed in Xenopus laevis oocytes assessed as increase in net charge at 30 uM at -60 mV holding potential treated for 12 secs followed by compound washout for 181 secs in presence of type 2 PAM PNU-120596 by whole cell two electrode voltage-clamp assay relative to ACh; type: cell-based
Sequence (P36544 whole entry): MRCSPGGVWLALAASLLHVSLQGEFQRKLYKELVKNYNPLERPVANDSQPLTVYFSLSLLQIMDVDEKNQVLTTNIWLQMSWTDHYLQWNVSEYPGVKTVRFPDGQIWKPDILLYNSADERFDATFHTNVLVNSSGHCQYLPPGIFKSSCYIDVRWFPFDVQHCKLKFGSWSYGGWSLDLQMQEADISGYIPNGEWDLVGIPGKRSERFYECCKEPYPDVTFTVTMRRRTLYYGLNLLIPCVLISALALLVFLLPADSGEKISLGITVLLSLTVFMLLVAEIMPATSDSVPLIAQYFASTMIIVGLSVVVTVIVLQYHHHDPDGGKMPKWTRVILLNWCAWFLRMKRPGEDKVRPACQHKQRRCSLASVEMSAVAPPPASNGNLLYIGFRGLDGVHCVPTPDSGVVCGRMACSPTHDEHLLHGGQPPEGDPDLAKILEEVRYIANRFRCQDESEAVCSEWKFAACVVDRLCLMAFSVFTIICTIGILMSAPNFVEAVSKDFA
quantityKind: fold change (FC)
Lab note: jot the number down without any unit.

Quick one: fold change (FC) for Cc1cccc(-c2noc(CC3CN4CCC3CC4)n2)c1 (stereo not given) ?
77.3

I am curious: what fold change (FC) value has been reported for C[N+]12CCC(CC1)C(Cc1nc(-c3cccc(F)c3)no1)C2 (stereo not given) ?
0.3

Value lookup for fold change (FC); key = FC(F)(F)c1cccc(-c2noc(CC3CN4CCC3CC4)n2)c1 (stereo not given)
0.1

Reported fold change (FC), molecule COc1cccc(-c2noc(CC3CN4CCC3CC4)n2)c1 (stereo not given) : ____
1

Suppose we examine the molecule Ic1cccc(-c2noc(CC3CN4CCC3CC4)n2)c1 (stereo not given) ; what fold change (FC) value has been reported?
0.5

Fill blank: measured fold change (FC) of the molecule C[N+]12CCC(CC1)C(Cc1nc(-c3cccnc3)no1)C2 (stereo not given) is ____.
3.9

// fold change (FC) lookup, key: C[N+]12CCC(CC1)C(Cc1nc(-c3ccccc3)no1)C2 (stereo not given)
2.4

Please report the recorded fold change (FC) for C[N+]12CCC(CC1)C(Cc1nc(-c3ccco3)no1)C2 (stereo not given) .
27.9

// lookup fold change (FC) for C[N+]12CCC(CC1)C(Cc1nc(-c3cccc(Br)c3)no1)C2 (stereo not given)
0.3

# get_value(readout='fold change (FC)', item= c1cncc(-c2noc(CC3CN4CCC3CC4)n2)c1 (stereo not given) )
13.7

* * *

target: Neuronal acetylcholine receptor subunit alpha-7 (Homo sapiens); experiment: Ratio of partial agonist activity at human alpha7 nAChR expressed in Xenopus laevis oocytes assessed as increase in peak current amplitude relative to ACh to partial agonist activity at human alpha7 nAChR expressed in Xenopus laevis oocytes assessed as increase in net charge relative to ACh; assay type: cell-based
Could you please classify the records by Ratio using these ranges: interval 1 = under 2, interval 2 = from 2 up to 3, interval 3 = 3 and over

Category lookup for the molecule C[N+]12CCC(CC1)C(Cc1nc(-c3cccc(C(F)(F)F)c3)no1)C2 (stereo not given)
interval 2

Which category does the recorded Ratio put C[N+]12CCC(CC1)C(Cc1nc(-c3cccc(Cl)c3)no1)C2 (stereo not given) in?
interval 1

Kindly identify the class of C[N+]12CCC(CC1)C(Cc1nc(-c3ccncc3)no1)C2 (stereo not given) .
interval 1

Where would COc1ccc(-c2noc(CC3CN4CCC3CC4)n2)cc1 (stereo not given) land among the classes by reported Ratio?
interval 3

Into which bin does this molecule go? c1csc(-c2noc(CC3CN4CCC3CC4)n2)c1 (stereo not given)
interval 3

Pick a category. Item: C[N+]12CCC(CC1)C(Cc1nc(-c3cccc(I)c3)no1)C2 (stereo not given)
interval 3

Entry Ic1cccc(-c2noc(CC3CN4CCC3CC4)n2)c1 (stereo not given) belongs to which category?
interval 3

// return the class label for Cc1noc(CC2CN3CCC2CC3)n1 (stereo not given)
interval 1

Which class is correct for the following molecule? Clc1cccc(-c2noc(CC3CN4CCC3CC4)n2)c1 (stereo not given)
interval 3

Which Ratio band matches C[N+]12CCC(CC1)C(Cc1nc(-c3cccc(Br)c3)no1)C2 (stereo not given) ?
interval 2

Please indicate the class for COc1ccc(-c2noc(CC3C[N+]4(C)CCC3CC4)n2)cc1 (stereo not given) based on its Ratio.
interval 1

Form: Item = C[N+]12CCC(CC1)C(Cc1nc(-c3ccccc3)no1)C2 (stereo not given) ; Class = ?
interval 1

Tag the class for Fc1cccc(-c2noc(CC3CN4CCC3CC4)n2)c1 (stereo not given)
interval 3

Which class is correct for the following molecule? COc1cccc(-c2noc(CC3CN4CCC3CC4)n2)c1 (stereo not given)
interval 2

Hello team, could you let me know which band the following molecule falls into: FC(F)(F)c1cccc(-c2noc(CC3CN4CCC3CC4)n2)c1 (stereo not given)
interval 2

Note: place this molecule into its band. Item: C[N+]12CCC(CC1)C(Cc1nc(-c3cccc(F)c3)no1)C2 (stereo not given)
interval 1

Would you mind sorting c1ccc(-c2noc(CC3CN4CCC3CC4)n2)cc1 (stereo not given) into the appropriate category?
interval 2

For c1coc(-c2noc(CC3CN4CCC3CC4)n2)c1 (stereo not given) , which Ratio bin applies?
interval 3

Class for c1cc(-c2noc(CC3CN4CCC3CC4)n2)ccn1 (stereo not given) ?
interval 1

Which of the defined bands does the recorded Ratio of c1cncc(-c2noc(CC3CN4CCC3CC4)n2)c1 (stereo not given) sit within?
interval 1

Into which category would you place Cc1cccc(-c2noc(CC3C[N+]4(C)CCC3CC4)n2)c1 (stereo not given) ?
interval 1

Any idea which band Cc1cccc(-c2noc(CC3CN4CCC3CC4)n2)c1 (stereo not given) is in?
interval 3

Sort Brc1cccc(-c2noc(CC3CN4CCC3CC4)n2)c1 (stereo not given) into one of the categories.
interval 3

Which Ratio band matches C[N+]12CCC(CC1)C(Cc1nc(-c3ccco3)no1)C2 (stereo not given) ?
interval 1
